The reported numbers originate from patent US20130053336A1.

# Test system: Chlamydia trachomatis serovar L2
# Measurement Description: Minimum bactericidal concentration (titration of infectious ability of bacteria from treated infected cells)
# Type: cell-based
# Condition: minimum bactericidal concentration, read-out: MBC
Counter-ions that a name gives are not always drawn.
// reported MBC per item
Show the value, then the unit it is measured in.

Below are worked cases with known answers.
Compound: CC1(C)S[C@@H]2[C@H](NC(=O)COc3ccccc3)C(=O)N2[C@H]1C(=O)O [Penicillin V potassium salt]
MBC: 0.3 µM
--
Compound: CC1(C)S[C@@H]2[C@H](/N=C/N3CCCCCC3)C(=O)N2[C@H]1C(=O)O
MBC: 3 µM
--
Compound: CC1=C(C(=O)O)N2C(=O)[C@@H](NC(=O)[C@H](N)c3ccc(O)cc3)[C@H]2SC1
MBC: 10 µM
--
Compound: Cc1onc(-c2ccccc2Cl)c1C(=O)N[C@@H]1C(=O)N2[C@@H]1SC(C)(C)[C@@H]2C(=O)O [Cloxacillin sodium salt hydrate]
MBC: 3 µM
--
Compound: C=CC1=C(C(=O)O)N2C(=O)[C@@H](NC(=O)/C(=N\OCC(=O)O)c3csc(N)n3)[C@H]2SC1 [Cefixime trihydrate]
MBC: 300 µM
--
Compound: C[C@]1(Cn2ccnn2)[C@H](C(=O)O)N2C(=O)C[C@H]2S1(=O)=O [Tazobactam sodium salt]
MBC: 30 µM
--
Compound: CC1(C)S[C@@H]2[C@H](NC(=O)[C@H](N)c3ccc(O)cc3)C(=O)N2[C@H]1C(=O)O [Amoxicillin trihydrate]
MBC: 0.3 µM
--
Compound: O=C(O)[C@H]1/C(=C/CO)O[C@@H]2CC(=O)N21 [Potassium clavulanate]
MBC: 1 µM
--
Compound: C[C@@H](O)[C@H]1C(=O)N2C(C(=O)O)=C(SCCN=CN)C[C@H]12 [Imipenem monohydrate]
MBC: 300 µM

// next entry
input: Look up and state reported MBC for "CC1(C)S[C@@H]2[C@H](NC(=O)Cc3ccccc3)C(=O)N2[C@H]1C(=O)O"
output: 0.3 µM

* * *

# Tested on: Chlamydia trachomatis serovar L2
# Measurement Description: Minimum bactericidal concentration (titration of infectious ability of bacteria from treated infected cells)
# Assay type: cell-based
# Condition: second line of the MBC cell, read-out: MBC, bound in parentheses below the value
# Protocol: It was first sought to verify whether other molecules of the β-lactam family could induce in vitro the same abnormal and noninfectious forms of Chlamydia trachomatis as that produced in the presence of penicillin G. Titration experiments were performed on the infectious ability of bacteria from infected cells treated with different β-lactams. Cytotoxicity and minimum bactericidal concentration (MBC) were determined for each of these molecules. […]
Structures can show the parent of a compound that is named as a salt.
Metric Name: MBC

Solved cases (5 shown):
Compound: CC1(C)S[C@@H]2[C@H](NC(=O)Cc3ccccc3)C(=O)N2[C@H]1C(=O)O
Result: > 0.1 µM
--
Compound: CC1(C)S[C@@H]2[C@H](/N=C/N3CCCCCC3)C(=O)N2[C@H]1C(=O)O
Result: > 1 µM
--
Compound: C[C@]1(Cn2ccnn2)[C@H](C(=O)O)N2C(=O)C[C@H]2S1(=O)=O [Tazobactam sodium salt]
Result: > 10 µM
--
Compound: CC1(C)S[C@@H]2[C@H](NC(=O)[C@H](N)c3ccc(O)cc3)C(=O)N2[C@H]1C(=O)O [Amoxicillin trihydrate]
Result: > 0.1 µM
--
Compound: C=CC1=C(C(=O)O)N2C(=O)[C@@H](NC(=O)/C(=N\OCC(=O)O)c3csc(N)n3)[C@H]2SC1 [Cefixime trihydrate]
Result: > 100 µM

input: Indicate the recorded MBC value for this compound: C[C@@H](O)[C@H]1C(=O)N2C(C(=O)O)=C(SCCN=CN)C[C@H]12 [Imipenem monohydrate]
output: > 100 µM

input: Indicate its recorded MBC; the compound in question is Cc1onc(-c2ccccc2Cl)c1C(=O)N[C@@H]1C(=O)N2[C@@H]1SC(C)(C)[C@@H]2C(=O)O [Cloxacillin sodium salt hydrate]
output: > 1 µM

* * *

# System: Chlamydia trachomatis serovar L2
# Measurement Description: Minimum bactericidal concentration (titration of infectious ability of bacteria from treated infected cells)
# Format: cell-based
# Condition: second line of the MBC cell, read-out: MBC, bound in parentheses below the value
Where a name gives a salt, the structure may show the parent alone.
The entries below are paired with their reported MBC.

// solved cases for MBC follow
Compound: O=C(O)[C@H]1/C(=C/CO)O[C@@H]2CC(=O)N21 [Potassium clavulanate]
MBC: > 0.3 µM

Compound: CC1=C(C(=O)O)N2C(=O)[C@@H](NC(=O)[C@H](N)c3ccc(O)cc3)[C@H]2SC1
MBC: > 3 µM

Now take the following compound into account.
input: Recall and state the measured MBC for CC1(C)S[C@@H]2[C@H](NC(=O)COc3ccccc3)C(=O)N2[C@H]1C(=O)O [Penicillin V potassium salt] .
output: > 0.1 µM
